- measured-on: KRAS G12V (Homo sapiens (Human), UniProt P01116+P62937, G12V)
- Sequence (P01116-2 other isoform, or with tags, fused parts or gaps G12V, one chain of several): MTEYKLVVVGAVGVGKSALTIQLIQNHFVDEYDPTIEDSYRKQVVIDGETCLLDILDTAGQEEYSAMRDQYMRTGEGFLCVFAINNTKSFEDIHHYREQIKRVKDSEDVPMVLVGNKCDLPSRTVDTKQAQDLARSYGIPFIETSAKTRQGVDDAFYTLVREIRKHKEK
- assay-comment: Ras-Raf (BRAF RBD) disruption / FRET / MOA assay, KRAS G12V
- Type: biochemical
- run-parameters: read-out: IC50* KRAS G12V FRET data
pIC50: −log10 of the molar value.
Record form. Attribute: pIC50. Fill in for each entry.

# input I'd like to know its pIC50. The compound in question is `C=CC(=O)N1CC[C@H](C(=O)N(C)[C@H](C(=O)N[C@H]2Cc3cc(O)cc(c3)-c3ccc4c(c3)c(c(-c3cc(N5CC(OC)C5)ccn3)n4CC)CC(C)(C)COC(=O)[C@@H]3CCCN(N3)C2=O)C(C)C)C1`
# output 5.00 to 6.00

# input What would you report for `CCn1c(-c2cnccc2COC)c2c3cc(ccc31)-c1cc(O)cc(c1)C[C@H](NC(=O)[C@H](C(C)C)N(C)C(=O)[C@H]1CCN(C(=O)C(C)(C)N(C)C)C1)C(=O)N1CCC[C@H](N1)C(=O)OCC(C)(C)C2` ?
# output 6.00 to 7.00

* * *

Record form. Attribute: IC50. Fill in for each entry.
- measured-on: NRAS Q61K (Homo sapiens (Human), UniProt P01111+P62937, Q61K)
- Sequence (P01111 whole entry Q61K): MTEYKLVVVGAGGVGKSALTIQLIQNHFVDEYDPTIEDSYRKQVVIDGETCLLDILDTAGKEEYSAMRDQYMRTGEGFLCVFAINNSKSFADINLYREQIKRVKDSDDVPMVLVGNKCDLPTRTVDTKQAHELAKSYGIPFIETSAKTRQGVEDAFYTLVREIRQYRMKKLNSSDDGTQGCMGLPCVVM
- Sequence (P62937 whole entry): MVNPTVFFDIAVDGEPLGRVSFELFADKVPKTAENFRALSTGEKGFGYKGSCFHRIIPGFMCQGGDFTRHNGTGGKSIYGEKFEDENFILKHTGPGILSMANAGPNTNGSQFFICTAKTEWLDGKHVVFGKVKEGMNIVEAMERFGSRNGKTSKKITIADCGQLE
- assay-comment: Ras-Raf (BRAF RBD) disruption / FRET / MOA assay, NRAS Q61K
- Assay type: biochemical
- run-parameters: NRAS Q61K; Ras-Raf disruption/FRET/MOA assay; read-out: IC50* NRAS Q61K FRET data

# input I'd like to know its IC50. The molecule in question is C=CC(=O)N1C[C@@H](C)N(C(=O)N(C)[C@H](C(=O)N[C@H]2Cc3nc(cs3)-c3ccc4c(c3)c(c(-c3cccnc3[C@H](C)OC)n4CC)CC(C)(C)COC(=O)[C@@H]3CCCN(N3)C2=O)C(C)C)[C@H](C)C1 (atropisomer, axis not shown)
# output < 0.01 µM

# input What would you report for C=CC(=O)N1C[C@@H](C)[C@H](N(C)C(=O)N(C)[C@H](C(=O)N[C@H]2Cc3nc(cs3)-c3ccc4c(c3)c(c(-c3cccnc3[C@H](C)OC)n4CC)CC(C)(C)COC(=O)[C@@H]3CCCN(N3)C2=O)C(C)C)C1 (atropisomer, axis not shown) ?
# output 0.1 to 1 µM

# input What would you report for C=CS(=O)(=O)N1CCC2(CCN([C@H](C(=O)N[C@H]3Cc4cc(O)cc(c4)-c4ccc5c(c4)c(c(-c4cccnc4[C@H](C)OC)n5CC)CC(C)(C)COC(=O)[C@@H]4CCCN(N4)C3=O)C(C)C)C2=O)CC1 (atropisomer, axis not shown) ?
# output 0.01 to 0.1 µM

# input What would you report for CO[C@@H](C)c1ncccc1-c1c2c3cc(ccc3n1CC(F)(F)F)-c1csc(n1)C[C@H](NC(=O)[C@H](C(C)C)N(C)C(=O)N1CCC3(CC1)CN(C(=O)/C=C/CF)C3)C(=O)N1CCC[C@H](N1)C(=O)OCC(C)(C)C2 (atropisomer, axis not shown) ?
# output 0.01 to 0.1 µM

* * *

- measured-on: NRAS G12C (Homo sapiens (Human), UniProt P01111+P62937, G12C)
- Sequence (P01111 whole entry G12C): as the sequence (P01111 whole entry Q61K) above, with G12C, K61Q counted along it
- Sequence (P62937 whole entry): as the sequence (P62937 whole entry) above
- assay-comment: Ras-Raf (BRAF RBD) disruption / FRET / MOA assay, NRAS G12C
- Type: biochemical
- run-parameters: read-out: IC50* NRAS G12C FRET data
pIC50: −log10 of the molar value.
value-type: pIC50

# input I'd like to know its pIC50. The molecule in question is C=CC(=O)N1CCO[C@H]2CCN(C(=O)N(C)[C@H](C(=O)N[C@H]3Cc4nc(cs4)-c4ccc5c(c4)c(c(-c4cccnc4[C@H](C)OC)n5CC)CC(C)(C)COC(=O)[C@@H]4CCCN(N4)C3=O)C(C)C)C[C@@H]21 (atropisomer, axis not shown)
# output > 8.00

# input What would you report for `CCn1c(-c2cccnc2COC)c2c3cc(ccc31)-c1cc(O)cc(c1)C[C@H](NC(=O)[C@H](C(C)C)N(C)C(=O)[C@H]1CCN(C(=O)/C=C/CN3CCOCC3)C1)C(=O)N1CCC[C@H](N1)C(=O)OCC(C)(C)C2` ?
# output 7.00 to 8.00

# input What would you report for C=CC(=O)N1CC[C@]2(C1)OCN([C@H](C(=O)N[C@H]1Cc3cccc(n3)-c3ccc4c(c3)c(c(-c3cccnc3[C@H](C)OC)n4CC)CC(C)(C)COC(=O)[C@@H]3CCCN(N3)C1=O)C(C)C)C2=O (atropisomer, axis not shown) ?
# output 6.00 to 7.00

# input What would you report for `CO[C@@H](C)c1ncccc1-c1c2c3cc(ccc3n1CC(F)(F)F)-c1nnc(o1)C[C@H](NC(=O)[C@H](C(C)C)N(C)C(=O)[C@H]1CCN(C(=O)C#CC(C)(C)N3CCC3)C1)C(=O)N1CCC[C@H](N1)C(=O)OCC(C)(C)C2` ?
# output 7.00 to 8.00

# input What would you report for C=CC(=O)N1CCC2(CC1)CCN2C(=O)N(C)[C@H](C(=O)N[C@H]1Cc2nc(cs2)-c2ccc3c(c2)c(c(-c2cccnc2[C@H](C)OC)n3CC)CC(C)(C)COC(=O)[C@@H]2CCCN(N2)C1=O)C(C)C (atropisomer, axis not shown) ?
# output 7.00 to 8.00

# input What would you report for `C=CC(=O)N1CC[C@H](C(=O)N(C)[C@H](C(=O)N[C@H]2Cc3cc(O)cc(c3)-c3ccc4c(c3)c(c(-c3cc(C#N)cnc3COC)n4CC)CC(C)(C)COC(=O)[C@@H]3CCCN(N3)C2=O)C(C)C)C1` ?
# output 7.00 to 8.00

# input What would you report for CCn1c(-c2cccnc2[C@H](C)OC)c2c3cc(ccc31)-c1csc(n1)C[C@H](NC(=O)[C@H](C(C)C)N(C)C(=O)N1CCN(C(=O)/C=C/CN3CCOCC3)C3(CC3)C1)C(=O)N1CCC[C@H](N1)C(=O)OCC(C)(C)C2 (atropisomer, axis not shown) ?
# output 7.00 to 8.00

# input What would you report for `C=CC(=O)N1CC[C@H](C(=O)N(C)[C@H](C(=O)N[C@H]2Cc3cccc(c3)-c3ccc4c(c3)c(c(-c3cnn(C5CCN(C)CC5)c3[C@H](C)OC)n4CC)CC(C)(C)COC(=O)[C@@H]3CCCN(N3)C2=O)C(C)C)C1` ?
# output < 5.00

# input What would you report for C=CC(=O)Nc1ccc(C(=O)N(C)[C@H](C(=O)N[C@H]2Cc3cc(O)cc(c3)-c3ccc4c(c3)c(c(-c3cccnc3[C@H](C)OC)n4CC)CC(C)(C)COC(=O)[C@@H]3CCCN(N3)C2=O)C(C)C)cn1 (atropisomer, axis not shown) ?
# output > 8.00

# input What would you report for CO[C@@H](C)c1ncccc1-c1c2c3cc(ccc3n1CC(F)(F)F)-c1nc(co1)C[C@H](NC(=O)[C@H](C(C)C)N(C)C(=O)C1(F)CCN(C(=O)C#CC(C)(C)N(C)C)CC1)C(=O)N1CCC[C@H](N1)C(=O)OCC(C)(C)C2 (atropisomer, axis not shown) ?
# output > 8.00

# input What would you report for `C#CC(=O)N1CC[C@H](C(=O)N(C)[C@H](C(=O)N[C@H]2Cc3cc(O)cc(c3)-c3ccc4c(c3)c(c(-c3cnccc3[C@H](C)OC)n4CC)CC(C)(C)COC(=O)[C@@H]3CCCN(N3)C2=O)C(C)C)C1` ?
# output 7.00 to 8.00

# input What would you report for `C=CC(=O)N1CC[C@H](C(=O)N(C)[C@H](C(=O)N(C)[C@H]2Cc3cc(O)cc(c3)-c3ccc4c(c3)c(c(-c3cccnc3COC)n4CC)CC(C)(C)COC(=O)[C@@H]3CCCN(N3)C2=O)C(C)C)C1` ?
# output < 5.00

# input What would you report for CCn1c(-c2cccnc2[C@H](C)OC)c2c3cc(ccc31)-c1cccc(c1)C[C@H](NC(=O)[C@H](C(C)C)N(C)C(=O)[C@H]1CCN(C(=O)C#CC3CCO3)C1)C(=O)N1CCC[C@H](N1)C(=O)OCC(C)(C)C2 (mixture of isomers) ?
# output > 8.00

# input What would you report for `CCn1c(-c2cccnc2COC)c2c3cc(ccc31)-c1cc(O)cc(c1)C[C@H](NC(=O)[C@H](C(C)C)N(C)C(=O)[C@H]1CCN(C(=O)C#CC3(N(C)C)COC3)C1)C(=O)N1CCC[C@H](N1)C(=O)OCC(C)(C)C2` ?
# output 7.00 to 8.00

# input What would you report for C=CC(=O)N1CC[C@H](C(=O)N2CCCCC[C@H]2C(=O)N[C@H]2Cc3cccc(c3)-c3ccc4c(c3)c(c(-c3cccnc3[C@H](C)OC)n4CC)CC(C)(C)COC(=O)[C@@H]3CCCN(N3)C2=O)C1 (atropisomer, axis not shown) ?
# output 5.00 to 6.00
